The reported measurements were obtained from patent US8309554B2.

assay: in vivo; conditions: mouse, ip
MTD values by entry
Numbers only; they are read as mg/kg.

compound	unit_info	test_result
Cn1cncc1CC(c1ccsc1[N+](=O)[O-])S(=O)(=O)Oc1ccc(N(CCCl)CCCl)cc1 (stereo not drawn)	mg/kg	10
CS(=O)(=O)CCC(c1ccsc1[N+](=O)[O-])S(=O)(=O)Oc1ccc(N(CCCl)CCCl)cc1 (stereo not drawn)	mg/kg	40
O=[N+]([O-])c1sccc1C(Cc1cccnc1)S(=O)(=O)Oc1ccc(N(CCCl)CCCl)cc1 (stereo not drawn)	mg/kg	60
O=[N+]([O-])c1sccc1C(Cc1ccc(OCCO)nc1)S(=O)(=O)Oc1ccc(N(CCCl)CCCl)cc1 (stereo not drawn)	mg/kg	50
O=[N+]([O-])c1sccc1C(Cc1ccc(O)nc1)S(=O)(=O)Oc1ccc(N(CCCl)CCCl)cc1 (stereo not drawn)	mg/kg	20

Input line: Dear colleague, I am looking for the recorded MTD of the following compound: O=C(CO)Nc1ccc(CC(c2ccsc2[N+](=O)[O-])S(=O)(=O)Oc2ccc(N(CCCl)CCCl)cc2)cn1 (stereo not drawn)
Output line: 40

###

HT29 HCR: Air/N2 values by entry
test system: HT29; assay: cells; type: cell-based
Reply briefly: the number, and no unit.

compound	test_result
CCN(CC)CC#CCC(c1ccsc1[N+](=O)[O-])S(=O)(=O)Oc1ccc(N(CCCl)CCCl)cc1 (stereo not shown)	12
O=C(CO)Nc1cccc(OS(=O)(=O)CCC(c2ccsc2[N+](=O)[O-])S(=O)(=O)Oc2ccc(N(CCCl)CCCl)cc2)c1 (stereo not shown)	7

// moving on: another record for HT29 HCR: Air/N2
Input line: Dear colleague, I am looking for the recorded HT29 HCR: Air/N2 of the following compound: O=[N+]([O-])c1sccc1C(CCS(=O)(=O)N1CCC(O)CC1)S(=O)(=O)Oc1ccc(N(CCCl)CCCl)cc1 (stereo not shown)
Output line: 20

###

tested on: HT29; test: cells; format: cell-based; conditions: Homo sapiens, HT-29, 2 h, read-out: 2 hr N2 HT29 IC50
value_kind: IC50 (µM)
Numbers only; they are read as µM.

compound	target_desc	IC50, µM
CC(C)Nc1ccc(CC(c2ccsc2[N+](=O)[O-])S(=O)(=O)Oc2ccc(N(CCCl)CCCl)cc2)cn1 (centres unmarked) [TH-1328]	HT29	46

Input line: Dear colleague, I am looking for the recorded IC50 of the following compound: CCN(CC)CC#CCC(c1ccsc1[N+](=O)[O-])S(=O)(=O)Oc1ccc(N(CCCl)CCCl)cc1 (centres unmarked) [TH-1545]
Output line: 5

Input line: Dear colleague, I am looking for the recorded IC50 of the following compound: CS(=O)(=O)CCC(c1ccsc1[N+](=O)[O-])S(=O)(=O)Oc1ccc(N(CCCl)CCCl)cc1 (centres unmarked) [TH-1266]
Output line: 34

###

tested on: HT29; assay: cells; type: cell-based
HT29 HCR: Air/N2 values by entry
Reply briefly: the number, and no unit.

Some solved entries appear below for comparison.
compound	target_desc	test_result
O=C(CO)Nc1ccc(CC(c2ccsc2[N+](=O)[O-])S(=O)(=O)Oc2ccc(N(CCCl)CCCl)cc2)cn1 (stereo not drawn) [TH-1354]	HT29	33
CC(=O)Nc1ncccc1CC(c1ccsc1[N+](=O)[O-])S(=O)(=O)Oc1ccc(N(CCCl)CCCl)cc1 (stereo not drawn) [TH-1375]	HT29	16
Cn1ccnc1CC(c1ccsc1[N+](=O)[O-])S(=O)(=O)Oc1ccc(N(CCCl)CCCl)cc1 (stereo not drawn) [TH-1366]	HT29	14
Cn1cncc1CC(c1ccsc1[N+](=O)[O-])S(=O)(=O)Oc1ccc(N(CCCl)CCCl)cc1 (stereo not drawn) [TH-1365]	HT29	25
COCC(=O)N(C)c1ccc(CC(c2ccsc2[N+](=O)[O-])S(=O)(=O)Oc2ccc(N(CCCl)CCCl)cc2)cn1 (stereo not drawn) [TH-1478]	HT29	11

Input line: Given the entry O=C(CO)Nc1ncccc1CC(c1ccsc1[N+](=O)[O-])S(=O)(=O)Oc1ccc(N(CCCl)CCCl)cc1 (stereo not drawn) [TH-1384] , what HT29 HCR: Air/N2 was observed with HT29?
Output line: 16

Input line: Given the entry CC(=O)Nc1ccncc1CC(c1ccsc1[N+](=O)[O-])S(=O)(=O)Oc1ccc(N(CCCl)CCCl)cc1 (stereo not drawn) [TH-1364] , what HT29 HCR: Air/N2 was observed with HT29?
Output line: 27

Input line: Given the entry O=[N+]([O-])c1sccc1C(Cc1ccc(O[C@H]2CCCC[C@@H]2O)nc1)S(=O)(=O)Oc1ccc(N(CCCl)CCCl)cc1 (stereo partly drawn) [TH-1487] , what HT29 HCR: Air/N2 was observed with HT29?
Output line: 1

Input line: Given the entry O=[N+]([O-])c1sccc1C(CCS(=O)(=O)Oc1ccccc1)S(=O)(=O)Oc1ccc(N(CCCl)CCCl)cc1 (stereo not drawn) [TH-1292] , what HT29 HCR: Air/N2 was observed with HT29?
Output line: 158

Input line: Given the entry O=C(CO)Nc1ccc(CC(c2ccsc2[N+](=O)[O-])S(=O)(=O)Oc2ccc(N(CCCl)CCCl)cc2)cc1 (stereo not drawn) [TH-1400] , what HT29 HCR: Air/N2 was observed with HT29?
Output line: 2.1

Input line: Given the entry O=[N+]([O-])c1sccc1C(CCS(=O)(=O)CCO)S(=O)(=O)Oc1ccc(N(CCCl)CCCl)cc1 (stereo not drawn) [TH-1388] , what HT29 HCR: Air/N2 was observed with HT29?
Output line: 30

Input line: Given the entry Nc1ncccc1CC(c1ccsc1[N+](=O)[O-])S(=O)(=O)Oc1ccc(N(CCCl)CCCl)cc1.O=C(O)C(F)(F)F (stereo not drawn) [TH-1374] , what HT29 HCR: Air/N2 was observed with HT29?
Output line: 23

Input line: Given the entry C[C@H](O)C(=O)Nc1ccc(CC(c2ccsc2[N+](=O)[O-])S(=O)(=O)Oc2ccc(N(CCCl)CCCl)cc2)cn1 (stereo partly drawn) [TH-1465] , what HT29 HCR: Air/N2 was observed with HT29?
Output line: 30

Input line: Given the entry CNc1ccc(CC(c2ccsc2[N+](=O)[O-])S(=O)(=O)Oc2ccc(N(CCCl)CCCl)cc2)cn1 (stereo not drawn) [TH-1442] , what HT29 HCR: Air/N2 was observed with HT29?
Output line: 66
